In this section we review reported cytotoxicity at 70.5 h values for a set of compounds.
# Protocol Notes: Human HepG2 cell viability assay in 384 well format
# Assay type: toxicity, cell-based
# Parameters: dose 125 nL, time 70.5 hour; concentration not given beside the values
# Study Conditions: HepG2 cells, read-out: Inhibition
Give the value, in units of %, as a plain number.

# annotated cases, reported cytotoxicity at 70.5 h shown
In [3]: df
Out[3]:
                                   compound  unit_text  quantitative_readout
0  CC(C)[C@@H](C)NC1CCN(c2ccc(-n3ccnc3)cc2)CC1          %                 -12.5
1  CCN(CC1CCOC1)C(=O)c1cccnc1N1CCOCC1 (stereo not drawn)          %                 0.841

Problem: Returns the measured cytotoxicity at 70.5 h for the input compound. Input: CC(C)n1ncc2c1NC(=O)CC21C(=O)Nc2cc(Cl)cc(Cl)c21 (stereo not drawn)
Result: -17.8

Problem: Follow-up entry: CN1CCCC(CNC(=O)N2CCN(Cc3ccon3)CC2)C1 (stereo not drawn)
Result: -0.171

Problem: Follow-up entry: "c1ccc(CN2CC[C@@H]3[C@@H](CO[C@@H]3CNc3ncccn3)C2)nc1"
Result: -7.29

Problem: Follow-up entry: "Cc1oc(C(=O)O)cc1S(=O)(=O)Nc1cc(Br)ccc1Cl"
Result: 1.56

====

In this section we review reported cytotoxicity at 70.5 h values for a set of molecules.
# Protocol Notes: Human HepG2 cell viability assay in 384 well format
# Assay type: toxicity, cell-based
# Set-up: dose 125 nL, time 70.5 hour; concentration not given beside the values
# Study Conditions: HepG2 cells, read-out: Inhibition
Give the value, in units of %, as a plain number.

# annotated cases, reported cytotoxicity at 70.5 h shown
>>> df
                                  structure  quantitative_readout
0  O=C(O)c1cc(NS(=O)(=O)c2cccc(Cl)c2F)ccc1Cl                 -5.66
1       Cc1cc(C(=O)Nc2ccn(CCCN3CCCC3)n2)no1                  1.38
2  COc1cccc(CC(=O)N2CCC(Cc3nnc(SC)n3C)CC2)c1                 -23.6

Problem: Returns the measured cytotoxicity at 70.5 h for the input molecule. Input: "CSc1nnc(CC2CCN(C(=O)Cc3ccncc3)CC2)n1C"
Result: -16.8

Problem: Follow-up entry: "CCc1onc(C)c1C(=O)N1CCC(c2cc3ncccc3cn2)CC1"
Result: 9.24

====

# Protocol Notes: Human HepG2 cell viability assay in 384 well format
# Format: toxicity, cell-based
# Design: dose 125 nL, time 70.5 hour; concentration not given beside the values
# Study Conditions: HepG2 cells, read-out: Inhibition
In this section we review reported cytotoxicity at 70.5 h values for a set of compounds.
Give the value, in units of %, as a plain number.

# annotated cases, reported cytotoxicity at 70.5 h shown
                                   compound  unit_text  quantitative_readout
0     COCc1c(C(=O)NC2CCCC2)nnn1-c1ccc(C)cc1          %                  22.4
1                    CCCNC(=O)COc1ccc(C)cn1          %                -0.369
2  CN(CC1CCCCO1)c1ncnc2cc(F)ccc12 (stereo not drawn)          %                 -9.25
3  CCN1CCC2(CN(C(C)=O)CC23CCN(C(=O)N(C)C)CC3)C1=O (stereo not drawn)          %                 -9.48
4  CSCc1nc(CNC(=O)C2CCCN(CC(N)=O)C2)cs1 (stereo not drawn)          %                  11.4

Problem: Returns the measured cytotoxicity at 70.5 h for the input compound. Input: "Cc1nnc2n1CCN(C(=O)c1cc(Br)c(Cl)[nH]1)C2"
Result: -1.01

Problem: Follow-up entry: "CNS(=O)(=O)c1c(C)sc2ccccc12"
Result: -0.847

Problem: Follow-up entry: "CC(C)CNC(=O)CNc1c(NCc2ccco2)c(=O)c1=O"
Result: 0.885
